Hey, just so you know, these numbers are from paper PMC7145548.

- assayedSystem: T1, hsRosR (Halobacterium salinarum (Halobacterium …, UniProt Q9HSF4 1-116))
- T1 sequence: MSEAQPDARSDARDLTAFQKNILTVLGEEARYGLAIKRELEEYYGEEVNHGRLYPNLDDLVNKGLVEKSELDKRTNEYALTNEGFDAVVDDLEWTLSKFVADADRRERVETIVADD
- assayMethodText: fluorescence anisotropy
testReadout: pKd
// pKd: -log10(molar conc.)

For reference, reported pKd for S1 (25 bp) (dsDNA) DNA 1: GTGTAAATTGTCTGACATGTTCTTA DNA 2: TAAGAACATGTCAGACAATTTACAC stands at 7.11
